The measurements presented in this section are drawn from PubChem BioAssay.

test: HD-MB03 medulloblastoma cell growth inhibition, synergistic combos for chromothripsis tumors, BGB or cisplatin IC20 combos (AID 1671455); conditions: HD-MB03 medulloblastoma cells, at 0.5 µM, hits give high values
Would you mind labelling by inhibition? At or over -10% is Condition met, under is Condition not met.

- compound: "O=C(Nc1ccncc1)c1cc([N+](=O)[O-])ccc1Cl"
  answer label: "Condition not met"
- compound: "Cc1c(-c2cnccn2)ssc1=S"
  answer label: "Condition not met"
- compound: "NC(=O)c1ncn(C2OC(CO)C(O)C2O)n1 (stereo not drawn)"
  answer label: "Condition met"
- compound: "O=c1[nH]c(-c2ccc(C(F)(F)F)cc2)nc2c1CSCC2"
  answer label: "Condition met"
- compound: "CO[C@H]1/C=C/O[C@@]2(C)Oc3c(C)c(O)c4c(O)c(c(C=NN5CCN(C)CC5)c(O)c4c3C2=O)NC(=O)/C(C)=C\\C=C\\[C@H](C)[C@H](O)[C@@H](C)[C@@H](O)[C@@H](C)[C@H](OC(C)=O)[C@@H]1C"
  answer label: "Condition met"
- compound: "O=C(Nc1ccccc1)c1ccccc1O"
  answer label: "Condition met"
- compound: "CCc1c2c(nc3ccc(O)cc13)-c1cc3c(c(=O)n1C2)COC(=O)[C@]3(O)CC"
  answer label: "Condition met"
- compound: "O=c1ncccn1[C@@H]1O[C@H](CO)[C@@H](O)[C@H]1O"
  answer label: "Condition not met"
